Sourced from patent US12171755B2

assayed-target: PAPD5 (Homo sapiens, UniProt Q8NDF8)
Construct: made in house
Sequence (Q8NDF8 68-698 isoform Q8NDF8-5): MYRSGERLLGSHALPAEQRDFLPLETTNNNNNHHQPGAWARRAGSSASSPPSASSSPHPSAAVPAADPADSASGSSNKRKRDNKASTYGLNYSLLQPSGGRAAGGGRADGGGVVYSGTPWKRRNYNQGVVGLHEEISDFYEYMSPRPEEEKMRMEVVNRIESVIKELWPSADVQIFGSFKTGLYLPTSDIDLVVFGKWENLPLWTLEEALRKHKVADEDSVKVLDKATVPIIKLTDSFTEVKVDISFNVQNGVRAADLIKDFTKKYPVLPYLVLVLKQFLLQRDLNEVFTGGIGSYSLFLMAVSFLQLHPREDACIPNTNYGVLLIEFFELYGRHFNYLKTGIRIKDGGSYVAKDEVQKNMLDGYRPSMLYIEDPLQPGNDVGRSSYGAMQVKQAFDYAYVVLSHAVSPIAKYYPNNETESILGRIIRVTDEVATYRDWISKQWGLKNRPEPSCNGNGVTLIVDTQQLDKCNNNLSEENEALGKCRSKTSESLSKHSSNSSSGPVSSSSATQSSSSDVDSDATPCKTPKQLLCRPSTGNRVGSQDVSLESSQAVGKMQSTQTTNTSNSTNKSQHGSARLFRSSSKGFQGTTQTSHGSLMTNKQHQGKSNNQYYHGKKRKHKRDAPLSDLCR
experiment-notes: High-throughput luminescence (KinaseGlo) RNA polyadenylation assay, ATP utilization by recombinant PAPD5
Type: biochemical
assay-conditions: Table 4 (entries of Table 5); 100 μM compound; ratio of luminescence with inhibitor to DMSO, higher = higher inhibition
experimental-readout: Fold-change determined at compound concentration 100 μM

Cc1ccc(-c2nnc(Nc3ccc(OCC(N)=O)cc3)c3ccccc23)cc1S(=O)(=O)NCC1CCCO1 (stereo not drawn) :: 1.487
COC(=O)c1cnn2c(=O)cc(CS(=O)(=O)c3ccc(C)cc3C)[nH]c12 :: 1.29
CCc1cc(=O)n2nc(NCc3ccccc3C)nc2[nH]1 :: 1.255
CCOc1cc(-c2cc(C(=O)O)c3c(-c4ccccc4)[nH]nc3n2)ccc1O :: 1.272
CCCCn1c(=O)c2sccc2n2c(=S)[nH]nc12 :: 1.531
Cc1ccc2c(=O)cc(C(=O)Nc3nnc(CC(C)C)s3)oc2c1C :: 1.302
CC(Oc1ccc2c3c(c(=O)oc2c1)CCC3)C(=O)O (stereo not drawn) :: 1.653
Nc1nc(N2CCCC2)nc2ccccc12 :: 1.505
O=S(=O)(Nc1ccc2nncn2n1)c1ccc(Br)cc1 :: 1.318
